# assayed_system: T1, human PD-L1 (soluble protein of the kinetic measurements) (human, UniProt Q9NZQ7 19-238, limits assumed)
# T1 construct: kept apart from the His-tag protein of the ELISA; also called hPD-L1
# T1 sequence (Q9NZQ7 19-238 limits assumed): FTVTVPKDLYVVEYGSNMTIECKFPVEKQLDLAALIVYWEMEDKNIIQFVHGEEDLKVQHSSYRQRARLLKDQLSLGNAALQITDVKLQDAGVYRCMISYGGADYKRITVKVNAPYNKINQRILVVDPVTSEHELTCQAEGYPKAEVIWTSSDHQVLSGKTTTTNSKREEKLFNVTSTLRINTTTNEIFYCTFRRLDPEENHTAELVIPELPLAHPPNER
# assay_protocol: BLI (Octet), antibody fixed on biosensor, PD-L1 in solution
The reader will find reported kon values listed item by item below.
Answer with a number only, understood to be in M⁻¹ s⁻¹.

Consider the worked cases shown below.
[[record]]
binder = "ME4.B10 anti-PD-L1 antibody (IgG form) (antibody, V domains shown) VH: QVQLVESGAEVKKPGSSVKVSCKASGGTFNNYAVSWVRQAPGQGLEWMGRIIPILGIANYAQTFQGRVTITADKSTTTAYMELSSLRSEDTAVYYCARSARGYAHGAFDIWGQGTMVTVSS VL: QFVLTQPPSVSGAPGQRVTISCTGSSSNIGAGYDVHWYQQLPGTAPKVLIYGNSDRPSGVPDRFSGSKSGTSASLAITGLQGEDKATYYCQSYDSRLSGPVFGTGTKVTVLG"
reported_value = 145000

[[record]]
binder = "ME4 anti-PD-L1 antibody (IgG form) (antibody, V domains shown, Converted to IgG with the vectors pIgGHD-6A6Hvy and pIgGLD-6A6Lgt; Expressed in Expi293F cells) VH: QVQLVESGAEVKKPGSSVKVSCKASGGTFNNYAVSWVRQAPGQGLEWMGRIIPILGIANYAQTFQGRVTITADKSTTTAYMELSSLRSEDTAVYYCARSYSGYAEGAFDIWGQGTMVTVSS VL: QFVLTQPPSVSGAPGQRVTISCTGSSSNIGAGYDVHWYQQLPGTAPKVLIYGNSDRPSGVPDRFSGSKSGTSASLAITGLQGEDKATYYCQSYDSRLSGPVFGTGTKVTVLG"
reported_value = 188000


I'd like to know its kon. The binder in question is ME4.A11 anti-PD-L1 antibody (IgG form) (antibody, V domains shown) VH: QVQLVESGAEVKKPGSSVKVSCKASGGTFNNYAVSWVRQAPGQGLEWMGRIIPILGIANYAQTFQGRVTITADKSTTTAYMELSSLRSEDTAVYYCARSRGGYAHGAFDIWGQGTMVTVSS VL: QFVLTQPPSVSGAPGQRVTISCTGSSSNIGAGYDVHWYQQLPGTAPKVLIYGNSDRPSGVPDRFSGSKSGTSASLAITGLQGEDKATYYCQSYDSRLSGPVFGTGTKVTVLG
118000
